Where do these numbers come from? They come from ChEMBL document CHEMBL1800033.

- Method: Toxicity in human RBC assessed as hemolytic activity after 4 hrs
- Format: cell-based, Erythrocyte
- Reported Conditions: human red blood cells (RBC)
For each record, write down the corresponding HC50 at 4 h.
Respond with the bare value in µM.

Ask: Sample "H-AQWFAIQHISLNPPRSTIAMRAINNYRWRSKNQNTFLR-OH" — what was its HC50 at 4 h?
Reply: 10.5

Ask: Now consider "H-TIAMRAINNYRWRSKNQNTFLR-OH" and answer again.
Reply: 18.7

Ask: Ok, now "H-ISLNPPRSTIAMRAINNYRWRSKNQNTFLR-OH"
Reply: 10.5

Ask: Further, for "H-RPPQFTRAQWFAIQHISLN-OH" ?
Reply: 11.2

Ask: And then "H-AQWFAIQHISLNPPRSTIAMRAINNYRWR-OH" , what is it?
Reply: 10.3
